# system: WT KCa3.1 (Homo sapiens, UniProt O15554+P0DP23)
# method: Inside-out patch-clamp calcium concentration-response
attributeMeasured: EC50 (nM)
Kindly answer with a numeric value in nM, unit omitted.

Fill in the recorded EC50 for this compound, with WT KCa3.1 (Homo sapiens, UniProt O15554+P0DP23) as test system: [Ca]
437

* * *

molecules and their reported melting point

Worked cases, answers included:
molecule	measuredResult
Cc1nc2c(ccc3c([N+](=O)[O-])cccc32)s1 [SKA-215, 2-Methyl-6-nitronaphtho[1,2-d]thiazole]	178 to 179 °C
CNc1nc2c(ccc3ccccc32)s1 [SKA-158, N-Methylnaphtho[1,2-d]thiazol-2-amine]	187 to 188 °C

Requested read-out: melting point. Entry: Nc1nc2c(cc(-c3ccccc3)c3ccccc32)s1 [SKA-326, 5-Phenylnaphtho[1,2-d]thiazol-2-amine]
177 to 178 °C

Requested read-out: melting point. Entry: Cc1nccn1-c1cc2sc(N)nc2c2ccccc12
264 to 265 °C

Requested read-out: melting point. Entry: Cc1nc2c(cc(Br)c3ccccc32)o1 [SKA-133, 5-Bromo-2-methylnaphtho[1,2-d]oxazole]
101 to 102 °C

Requested read-out: melting point. Entry: Nc1nc2c(cc(-n3cncn3)c3ccccc32)s1
273 °C

Requested read-out: melting point. Entry: Nc1nc2c(cc(-n3cccn3)c3ccccc32)s1
226 to 227 °C

Requested read-out: melting point. Entry: CCN(CC)c1cc2sc(N)nc2c2ccccc12
119 to 121 °C

Requested read-out: melting point. Entry: c1ccc(Nc2nc(-c3cccc4ccccc34)cs2)nc1
225 °C

* * *

attributeMeasured: melting point

Requested read-out: melting point. Entry: Nc1nc2c(cc([N+](=O)[O-])c3ccccc32)s1 [SKA-321, 5-Nitronaphtho[1,2-d]thiazol-2-amine]
289 to 291 °C

Requested read-out: melting point. Entry: c1ccc(Nc2nc3c(ccc4ccccc43)s2)cc1 [SKA-146, N-Phenylnaphtho[1,2-d]thiazol-2-amine]
140 to 141 °C

Requested read-out: melting point. Entry: CCc1cc2sc(N)nc2c2ccccc12 [SKA-306, 5-Ethylnaphtho[1,2-d]thiazol-2-amine]
144 to 145 °C

* * *

# system: KCa3.1 S181A-L185A double mutant (Homo sapiens, UniProt O15554+P0DP23, L185A/S181A)
# method: Inside-out patch-clamp calcium concentration-response
attributeMeasured: pEC50
Note on pEC50: it is the negative log10 of concentration, concentration in mol/L.

Requested read-out: pEC50. Entry: [Ca]
6.41

* * *

compounds and their reported melting point

Worked cases, answers included:
compound	measuredResult
Nc1nc2cc3ccccc3cc2o1 [SKA-134, Naphtho[2,3-d]oxazol-2-amine]	247 to 248 °C
Cc1cn(-c2cc3sc(N)nc3c3ccccc23)cn1 [SKA-343]	269 to 271 °C
Cc1cnn(-c2cc3sc(N)nc3c3ccccc23)c1 [SKA-345]	249 °C
Cc1ccc2cccc(-c3csc(N)n3)c2c1 [SKA-193]	154 to 156 °C
Cc1ccc2cc(-c3csc(N)n3)ccc2c1 [SKA-198]	178 to 179 °C
CN(C)c1cc2sc(N)nc2c2ccccc12 [SKA-331]	171 to 174 °C

Requested read-out: melting point. Entry: Nc1nc2c(cc(-n3ccnn3)c3ccccc32)s1 [SKA-339]
208 °C

Requested read-out: melting point. Entry: CC(C)c1cc2sc(N)nc2c2ccccc12 [SKA-308, 5-Isopropylnaphtho[1,2-d]thiazol-2-amine]
179 to 181 °C

Requested read-out: melting point. Entry: Cc1ccc(-c2csc(Nc3cccc(C(F)(F)F)c3)n2)cc1 [SKA-260]
108 °C

* * *

attributeMeasured: melting point

Worked cases, answers included:
compound	attributeMeasured	measuredResult
FC(F)(F)c1ccc(Nc2nc(-c3ccccc3)cs2)cc1 [SKA-268]	melting point	153 °C
FC(F)(F)c1cccc(Nc2nc(-c3cccc4ccccc34)cs2)c1 [SKA-251]	melting point	135 °C
Cc1ccn(-c2cc3sc(N)nc3c3ccccc23)n1 [SKA-340]	melting point	189 to 190 °C
CNc1nc2c(cc(C)c3ccccc32)s1 [SKA-204]	melting point	172 to 173 °C
Cc1nc2c(ccc3cccc(N)c32)s1 [SKA-178, 2-Methylnaphtho[1,2-d]thiazol-9-amine]	melting point	87 to 88 °C
CCCc1cc2sc(N)nc2c2ccccc12 [SKA-307, 5-Propylnaphtho[1,2-d]thiazol-2-amine]	melting point	147 to 150 °C
Nc1nc2c(cc(-n3ccc(C(F)(F)F)n3)c3ccccc32)s1 [SKA-341]	melting point	206 to 207 °C
Cc1nc2c(cc(C#N)c3ccccc32)o1 [SKA-135]	melting point	145 to 146 °C
Nc1nc2c(cc(-n3ccnc3)c3ccccc32)s1 [SKA-334]	melting point	272 to 275 °C
Nc1nc(-c2ccc(-c3csc(N)n3)cc2)cs1 [SKA-230, 4,4'-(1,4-Phenylene)bis(thiazol-2-amine)]	melting point	350 °C

Requested read-out: melting point. Entry: Cc1nc2c(ccc3cccc([N+](=O)[O-])c32)s1 [SKA-216, 2-Methyl-9-nitronaphtho[1,2-d]thiazole]
151 to 152 °C
